System: CP192
procedure.details: qHTS profiling for inhibitors of Plasmodium falciparum proliferation (AID 504749); also: nearly all actives have a fitted effect of over 60% in size; also: potency is read from the fitted curve at half-maximal effect
stated.conditions: P. falciparum in erythrocytes, SYBR Green DNA, 72 h; series mostly up to 28.7 µM
Results filed as inconclusive are left out. Active and inactive are the calls of the source. Calls follow the shape of the dose curve; as a rule, active = well fitted inhibition curve with a large enough effect; inconclusive = small, poorly fitted or top-dose-only effect; inactive = flat fitted curve, though single readings scatter. Square brackets hold non-standard residues; d marks the D form. Peptide text beside a SMILES is read from it. Orn = NCCC[CH](N)C(=O)O
test.readout: Potency

compound	meas.value
CC(C)CC1NC(=O)C(CCCN)NC(=O)C(C(C)C)NC(=O)C2CCCN2C(=O)C(Cc2ccccc2)NC(=O)C(CC(C)C)NC(=O)C(CCCN)NC(=O)C(C(C)C)NC(=O)C2CCCN2C(=O)C(Cc2ccccc2)NC1=O (stereo not drawn) (cyclo(FPV[Orn]LFPV[Orn]L); configuration not given here)	1.7 nM (active)
NC(=O)CCC1NC(=O)C(Cc2ccccc2)NC(=O)C(Cc2ccc(O)cc2)NC(=O)CCSSCC(C(=O)N2CCCC2C(=O)NC(CCCN=C(N)N)C(=O)NCC(N)=O)NC(=O)C(CC(N)=O)NC1=O (stereo not drawn)	inactive
C=CC1=C(C(=O)O)N2C(=O)[C@@H](NC(=O)C(N=O)c3csc(N)n3)[C@H]2SC1 (stereo partly drawn)	inactive

# credit: PubChem BioAssay (NCATS)
